Each entry below carries its recorded TGI.
system: SK-MEL-28 melanoma; assay: NCI tumour cell line growth inhibition, 48 h

Previously resolved entries follow.
| compound | system | TGI |
| --- | --- | --- |
| C[N+](C)(C)CCc1ccccc1 | SK-MEL-28 melanoma | > 100 µM |
| COc1cc2c(c(OC)c1OC)-c1ccc(SC)c(=O)cc1C(NC(=O)c1ccccc1)CC2 (stereo not given) | SK-MEL-28 melanoma | > 63.1 µM |
| CCN(CC)CC1c2ccccc2C(CNc2ccccc2)N1C (stereo not given) | SK-MEL-28 melanoma | > 100 µM |
| O=C(NC1CCCCC1)NS(=O)(=O)c1ccc2c(c1)CCC2 | SK-MEL-28 melanoma | > 100 µM |
| CCc1nn(CN2CCOCC2)c(=S)n1/N=C/c1ccc(-c2ccc(Cl)cc2)o1 | SK-MEL-28 melanoma | > 100 µM |

Qu. // lookup TGI | system=SK-MEL-28 melanoma | key= `O=[N+]([O-])c1ccc(C=Cc2ccccc2)cc1.[C-]#[O+].[C-]#[O+].[C-]#[O+].[Cr]`
Ans. > 100 µM

Qu. Param readout = TGI; param system = SK-MEL-28 melanoma; param query = `CS(=O)(=O)c1ccc(-c2cc(-c3ccc(S(C)(=O)=O)cc3)[n+](-c3cc(-c4ccc(S(C)(=O)=O)cc4)c([O-])c(-c4ccc(S(C)(=O)=O)cc4)c3)c(-c3ccc(S(C)(=O)=O)cc3)c2)cc1` ; response: value
Ans. > 100 µM

Qu. What TGI appears in the records for this compound with SK-MEL-28 melanoma? `CCOC(=O)C1=NOC2(C=C(Br)C(=O)C(Br)=C2)C1`
Ans. 24.7 µM

Qu. What value of TGI on SK-MEL-28 melanoma does `O=c1[nH]cc(-c2c[nH]c3ccccc23)nc1-c1c[nH]c2ccccc12` have?
Ans. 31.7 µM

Qu. Return TGI measured with SK-MEL-28 melanoma given this compound: COc1ccc(C2SCC(=O)N2c2ccc(-c3ccc(-n4c(-c5ccccc5)nc5ccccc5c4=O)cc3)cc2)cc1OC (stereo not given)
Ans. > 100 µM

Qu. Please provide the recorded TGI for `COc1cc2c3c(n(C)c(=O)c2cc1OC)-c1cc2c(cc1/C3=C\CCCCN1C(=O)c3ccccc3C1=O)OCO2` , tested on SK-MEL-28 melanoma.
Ans. > 100 µM

* * *

Measured log10 of TGI of individual entries
tested on: HL-60(TB) leukemia; experiment: NCI tumour cell line growth inhibition, 48 h
A difference of one corresponds to tenfold TGI; all values are log10 with TGI in µM.

| compound | log10 of TGI |
| --- | --- |
| Cc1cc(S(=O)(=O)Nc2nc3ccccc3nc2-c2cccc([N+](=O)[O-])c2)c(S)cc1Cl | 1.65 |
| C1CCC([PH+](C2CCCCC2)C2CCCCC2[PH+](C2CCCCC2)C2CCCCC2)CC1.[Au].[CH-]1CCCCC1CC1CCCC[N-]1 (stereo not given) | -0.08 |
| CN=c1ccc2nc3ccc(N)cc3sc-2c1 | 0.22 |
| O=c1ssc(=Nc2ccccc2)n1-c1ccccc1 | 1.98 |
| COc1ccc2c(c1)N(CCO)C1=C(C(=O)OC1)C2c1cccc(F)c1 (stereo not given) | -0.11 |
| CCOC(=O)c1c(C)nc2c1c(CN(C)C)c(O)c1[nH]c(C)c(C)nc12 | 1.40 |
| OCC1OC(n2cnc3c(N/N=C\c4ccccn4)ncnc32)C(O)C1O (stereo not given) | -0.69 |

Now for a further compound.
Qu. Request the reported log10 of TGI associated with CCc1ccc2c(c1)N(CCO)C1=C(C(=O)OC1)C2c1cccc(Br)c1 (stereo not given)
Ans. 0.34

* * *

system: PC-3 prostate; assay: NCI tumour cell line growth inhibition, 48 h
This listing pairs compounds with measured TGI.
Express it in µM; write the number only.

Here is how some compounds turned out for TGI.
| compound | uom | TGI |
| --- | --- | --- |
| CCCCCCCCCCCCCCCCCC[n+]1ccc2c(C)c3c(c(C)c2c1)c1cc(O)ccc1n3CC | µM | 11 |
| O=C(/C=C/c1ccccc1)CCN1CCOCC1 | µM | 31.5 |
| CCc1ccc2c(c1)N(CCO)C1=C(C(=O)OC1)C2c1cccc(Br)c1 (stereo unspecified) | µM | 16.2 |

Moving on to another compound below.
Qu. Bench note: what TGI did CO[C@H]1CC(O[C@@H]2/C(C)=C/C[C@@H]3C[C@@H](C[C@]4(C=C[C@H](C)[C@@H](C5CCCCC5)O4)O3)OC(=O)[C@@H]3C=C(C)[C@@H](O)[C@H]4OC/C(=C\C=C\[C@@H]2C)[C@]43O)O[C@@H](C)C1O[C@H]1C[C@H](OC)[C@@H](O)[C@H](C)O1 (stereo partly specified) show?
Ans. 2.68

* * *

tested on: HOP-92 NSCLC; assay: NCI tumour cell line growth inhibition, 48 h
Where a SMILES comes first, the peptide text is derived from it. The star is where a group is joined. Boc = CC(C)(C)OC(=O)*
property-measured: TGI

Qu. What does the data say about its TGI? Entry: CS(=O)(=O)OCC1CN(S(C)(=O)=O)c2cc(O)ccc21 (stereo not given)
Ans. 7.08 µM

Qu. Entry under review: COc1cc(N2C(=O)[C@H](O)C2c2ccc(SC)cc2)cc(OC)c1OC (stereo not given in full) . Reported TGI?
Ans. > 100 µM

Qu. For the compound shown here, `O=C(O)c1ccc(C(=O)c2ccccc2)c(C(=O)O)c1` , give the reported TGI.
Ans. > 100 µM

Qu. Name the reported TGI value associated with the compound CC(C)(C)OC(=O)NC(Cc1ccc(O)cc1)C(=O)N1CCCC1C(=O)O (stereo not drawn) (Boc-Tyr-Pro-OH; configuration not given here)
Ans. > 100 µM

Qu. Item `CCCN(CCS(C)(=O)=O)Cc1ccc(-c2ccc3ncnc(Nc4ccc(OCc5cccc(F)c5)c(Cl)c4)c3c2)o1` has what recorded TGI?
Ans. > 25 µM

Qu. Which TGI is listed for `CC1(O)C=CC(=O)C=C1` ?
Ans. > 100 µM

Qu. Using the record for `O=C(/C=C/c1cc2ccccc2[nH]c1=O)/C=C/c1cc2ccccc2[nH]c1=O` , report its TGI.
Ans. > 100 µM

Qu. What does the data say about its TGI? Entry: `CCOc1ccccc1C(=O)N1CCN(c2cc(Cl)cc(Cl)c2)CC1`
Ans. 12.9 µM

Qu. Dear colleague, I am looking for the recorded TGI of the following compound: COC(=O)C1CC2CC(=NNC(N)=O)CC2C1 (stereo not given)
Ans. > 100 µM

Qu. Using the record for CC(=O)C1C(=O)C(=O)N(c2cccc([N+](=O)[O-])c2)C1=O (stereo not given) , report its TGI.
Ans. > 100 µM

* * *

system: UACC-62 melanoma; assay: NCI tumour cell line growth inhibition, 48 h
property-measured: TGI

The examples below pair each entry with its known result.
| molecule | system | experimental-value |
| --- | --- | --- |
| O=C(NNCC(O)COc1ccccc1)c1ccccc1 (stereo unspecified) | UACC-62 melanoma | > 100 µM |
| Cc1cc(S(=O)(=O)/N=C(/N)Nc2ccccc2O)c(SCc2ccccc2)cc1Cl | UACC-62 melanoma | 22.7 µM |
| COC1/C=C/C(C)C(C(C)C(OC)C(C)CCC(=O)C(C)C(C/C=C/N(C)C=O)OC)OC(=O)C=CC2OC2(C)CC(OC)C(OC)C2=CC(=O)O[C@@H](C(C)C(OC)CC(OC)/C=C/C(C)C(O)C1)[C@H]2O (stereo partly specified) | UACC-62 melanoma | 0.0514 µM |
| COc1nc(=O)n(COC(CO)CN2C(=O)c3ccccc3C2=O)cc1Cc1cccc(OCc2ccccc2)c1 (stereo unspecified) | UACC-62 melanoma | 28.5 µM |
| COc1c(Br)cc2c(c1OC)C(Br)CCC(Br)(Br)C2=O (stereo unspecified) | UACC-62 melanoma | 13.1 µM |

Next up:
Qu. Returns the measured TGI for the input molecule. Input: `COc1ccc(-c2nc(Nc3cc(C)[nH]n3)c3ccccc3n2)cc1`
Ans. > 100 µM

* * *

tested on: TK-10 renal; assay: NCI tumour cell line growth inhibition, 48 h; in the data active = GI50 below about 0.43 µM; inactive = the rest
Respond only with the outcome that fits, drawn from active, inactive

Before answering, review these 5 worked examples.
| compound | label |
| --- | --- |
| CCCCCCCCCCCCCCCCCC[n+]1ccc2c(C)c3c(c(C)c2c1)c1cc(O)ccc1n3CC | inactive |
| CO[C@H]1CC(O[C@@H]2/C(C)=C/C[C@@H]3C[C@@H](C[C@]4(C=C[C@H](C)[C@@H](C5CCCCC5)O4)O3)OC(=O)[C@@H]3C=C(C)[C@@H](O)[C@H]4OC/C(=C\C=C\[C@@H]2C)[C@]43O)O[C@@H](C)C1O[C@H]1C[C@H](OC)[C@@H](O)[C@H](C)O1 (stereo partly drawn) | inactive |
| COc1cc2nc(N3CCCC3)nc(NCCc3ccccc3)c2cc1OC | inactive |
| CCOC(=O)C1=C(C)N(c2ccc(Cl)cc2)[C@]2(C#N)C(O)=C(Cl)C(Cl)=C(O)[C@]12C#N | inactive |
| CC(C)NCCCn1c(Sc2cc3c(cc2I)OCO3)nc2c(N)ncnc21 | active |

Qu. Record request — test call for `CN1CCN(C(=O)c2cc(-c3ccc4ncnc(N5CCc6cc(F)c(Cl)cc65)c4c3)cnc2N)CC1`
Ans. active

Qu. Identify the outcome logged in this assay for the compound shown: N#CC1(C(N)=O)C(c2ccc(Cl)cc2)CC(=O)CC1c1ccc(Cl)cc1 (stereo not drawn)
Ans. inactive

Qu. Hello, I am checking results. What call was entered for O=C1CCC(N2Cc3cc(CNC(=O)C(F)(F)c4ccc(Cl)cc4)ccc3C2=O)C(=O)N1 (stereo not drawn) ?
Ans. inactive

Qu. Hi, do you know how CC(C)C[C@H](NC(=O)CNC(=O)c1cc(Cl)ccc1Cl)B1OC(=O)CC(CC(=O)O)(C(=O)O)O1 (stereo partly drawn) came out in this test?
Ans. active

Qu. What did the test return for `O=C1c2c(c3c4ccccc4[nH]c3c3ccc4ccccc4c23)C(=O)N1CCN1CCNCC1` ?
Ans. inactive

Qu. Please let me know the test result on file for `CC1=C2[C@@H](CC1)[C@]1(C)O[C@@](c3ccccc3)(C[C@H]1OC(=O)CO)[C@H]2OC(=O)/C=C/c1ccccc1` .
Ans. inactive

Qu. Any idea what this test logged for `O=C(O)CN1CCN(CC(=O)O)CC(=O)[O][Hg][O]C(=O)C1` ?
Ans. inactive

Qu. How was `COc1ccc2cc1Oc1ccc(cc1)C[C@H]1c3c(cc4c(c3Oc3cc5c(cc3OC)CCN(C)[C@@H]5C2)OCO4)CCN1C` classified in this test?
Ans. inactive

Qu. Test call for this compound, please: `COc1ccc(-c2[nH]c3ccccc3c2-c2ccc(OC)cc2)cc1`
Ans. inactive
